Reported half-life values are given for each entry in this list.
Test: Metabolic stability in rat liver microsomes assessed as half-life
Assay type: ADME, Microsome

{"molecular.string": "CC[C@H]1C(=O)N(C)c2ccc(F)cc2N1C(=O)c1ccc(O)cc1O", "half-life": "> 30 min"}
{"molecular.string": "CC[C@H]1C(=O)N(CC)c2ccc(F)cc2N1C(=O)c1ccc(O)cc1O", "half-life": "> 30 min"}

====

Target: Glutamate receptor ionotropic AMPA (Homo sapiens, UniProt P42261+P42262+P42263+P48058)
Assay: Displacement of [3H]AMPA from AMPA receptor (unknown origin)
Assay type: protein-complex assay
pKi: −log10 of the molar value.
Mark rule met for reported pKi of 6 or greater; mark rule not met for anything smaller.

{"molecular.string": "O=c1[nH]c2cc([N+](=O)[O-])c(-n3ccnc3)nc2n2cnnc12", "label": "rule met"}
{"molecular.string": "CCOC(=O)c1nc2c(O)nc3cc([N+](=O)[O-])c(-n4ccc(C(=O)O)c4)cc3n2n1", "label": "rule met"}
{"molecular.string": "O=C(O)c1nc2c(=O)[nH]c3cc(Cl)cc(-n4cnnc4)c3n2n1", "label": "rule met"}
{"molecular.string": "Nc1cc(Cl)cc2[nH]c(=O)c3nc(C(=O)O)nn3c12", "label": "rule not met"}

====

Target: Coagulation factor X (Homo sapiens, UniProt P00742)
Sequence (P00742 41-179 limits assumed): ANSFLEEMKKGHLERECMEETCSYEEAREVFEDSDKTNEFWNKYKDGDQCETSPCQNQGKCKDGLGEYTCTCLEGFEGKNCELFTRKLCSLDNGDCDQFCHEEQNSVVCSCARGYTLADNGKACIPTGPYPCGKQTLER
Sequence (P00742 235-488 limits assumed): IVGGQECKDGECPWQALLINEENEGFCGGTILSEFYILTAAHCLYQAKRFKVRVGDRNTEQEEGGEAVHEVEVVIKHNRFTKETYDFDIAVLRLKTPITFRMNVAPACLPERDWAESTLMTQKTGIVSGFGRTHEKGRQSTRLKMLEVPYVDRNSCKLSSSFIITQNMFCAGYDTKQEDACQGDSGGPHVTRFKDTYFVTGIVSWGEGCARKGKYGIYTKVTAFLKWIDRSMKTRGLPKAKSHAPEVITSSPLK

{"molecular.string": "C[C@@H]1CCC[C@H](C)N1CCCCCn1c(=O)c(-c2cc(C(=N)N)ccc2O)nc2ccccc21", "Ki [nM]": 0.8}

====

Test system: Hepatitis C virus
Test: Antiviral activity against HCV
Type: functional, organism-based, Hepacivirus hominis
pEC50: −log10 of the molar value.

{"molecular.string": "CCC(CC)N(C)c1cc2ncc(=O)[nH]c2cc1Nc1nc(-c2ccccc2)cs1", "target": "Hepatitis C virus", "pEC50": 5.90}

====

Documented Activity across a set of compounds
Test system: Papillary muscle
Experiment: Positive inotropic activity in ferret papillary muscle assessed as contractile force measured as CFC20
Format: functional, Mustela putorius furo

{"molecular.string": "CCc1nc(C)c2c(O)nc3ccccc3n12", "readout.unit": "µM", "reported.relation": "=", "Activity": 0.2}
{"molecular.string": "Oc1nc2cccnc2n2ccnc12", "readout.unit": "µM", "reported.relation": "=", "Activity": 2.2}
{"molecular.string": "CCc1nccn1-c1ncnc2c1nc(O)c1cnc(CC)n12", "readout.unit": "µM", "reported.relation": ">", "Activity": 100}
{"molecular.string": "CCc1ncc2c(O)nc3cccnc3n12", "readout.unit": "µM", "reported.relation": "=", "Activity": 0.1}

====

Biological target: Glutamate [NMDA] receptor
Assay: Antagonist activity at NMDA receptor (unknown origin) assessed as NMDA-induced depolarizations
Type: protein-complex assay, Homo sapiens
Each item that follows carries a reported IC50.

{"molecular.string": "O=C(O)c1nc2c(O)nc3cc(Cl)c(-n4cccc4)cc3n2n1", "IC50 [µM]": 52}
{"molecular.string": "O=C(O)c1nc2c(=O)[nH]c3cc(Cl)c(-n4cnnc4)cc3n2n1", "IC50 [µM]": 46}
{"molecular.string": "O=Cc1ccn(-c2cc3c(cc2Cl)nc(O)c2nc(C(=O)O)nn23)c1", "IC50 [µM]": 23}
